Target: furin, P09958;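 note: purified furin at 1:10 enzyme:substrate in 50 mM HEPES pH 7.5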
Sequence (P09958 whole entry): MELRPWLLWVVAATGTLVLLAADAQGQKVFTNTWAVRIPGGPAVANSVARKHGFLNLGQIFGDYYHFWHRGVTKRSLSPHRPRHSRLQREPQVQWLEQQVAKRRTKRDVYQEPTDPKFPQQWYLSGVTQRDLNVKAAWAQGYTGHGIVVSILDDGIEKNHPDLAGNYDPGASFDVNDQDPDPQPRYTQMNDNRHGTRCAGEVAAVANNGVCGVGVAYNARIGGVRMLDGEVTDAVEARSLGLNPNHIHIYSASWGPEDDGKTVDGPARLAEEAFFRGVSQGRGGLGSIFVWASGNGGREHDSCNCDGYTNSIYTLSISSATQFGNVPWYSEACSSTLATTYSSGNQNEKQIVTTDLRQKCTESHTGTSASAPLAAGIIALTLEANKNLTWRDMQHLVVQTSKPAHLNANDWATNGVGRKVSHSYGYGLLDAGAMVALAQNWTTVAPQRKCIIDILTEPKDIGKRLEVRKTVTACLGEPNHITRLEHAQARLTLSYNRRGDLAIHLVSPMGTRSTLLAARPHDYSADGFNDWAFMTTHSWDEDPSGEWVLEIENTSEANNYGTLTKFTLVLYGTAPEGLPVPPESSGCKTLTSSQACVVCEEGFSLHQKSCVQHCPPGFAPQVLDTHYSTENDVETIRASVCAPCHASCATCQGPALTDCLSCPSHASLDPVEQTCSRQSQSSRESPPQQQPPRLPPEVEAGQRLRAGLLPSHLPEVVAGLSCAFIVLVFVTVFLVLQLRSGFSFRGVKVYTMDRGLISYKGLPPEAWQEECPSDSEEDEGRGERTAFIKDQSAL
Assay: furin cleavage Z-score vs untreated control; higher = more cleavage, active = 3.5 or more, inactive = 1 or less, 8 variable residues between constant flanks
Conditions: 7.5 min
The list shows a part of the results. No count for the full screen is at hand.
Would you mind answering with one of these outcomes? active, inactive

// known answers, use as guide
| monomerSequence | className |
| --- | --- |
| CAGRRRRHRSAGNASASA [FS-532] | active |
| CAMEECSQDLAGNASASA [HC1751] | inactive |
| CAPPRRLRRSAGNASASA [FS-841] | active |
| CASRRRRARSAGNASASA [FS-872] | active |
| CATTTSSEPAAGNASASA [HC1343] | inactive |
| CAFYGKAIPLAGNASASA [HC848] | inactive |
| CAAKVLVVLLAGNASASA [HC345] | inactive |
| CATTPCRGSWAGNASASA [HC70] | inactive |

Per the assay record, what outcome was assigned to CARSGRSRSRAGNASASA [FS-1926] ?
inactive
